Let's go through some recorded log10 of Ki values for Suppressor of tumorigenicity 14 protein (Homo sapiens) together.
// units: µM (pre-log); metric: Ki; scale: log10

For orientation, consider the following solved cases.
{"molecule": "N=C(N)c1cccc(C[C@H](NS(=O)(=O)c2cccc(-c3ccc(N)nc3)c2)C(=O)N2CCC(CCN)CC2)c1", "testedSystem": "Suppressor of tumorigenicity 14 protein (Homo sapiens)", "resultValue": -2.80}
{"molecule": "NCCC(=O)Nc1cccc(S(=O)(=O)N[C@@H](Cc2ccc(CN)cc2)C(=O)N2CCC(CCN)CC2)c1", "testedSystem": "Suppressor of tumorigenicity 14 protein (Homo sapiens)", "resultValue": 0.45}
{"molecule": "N=C(N)c1cccc(C[C@H](NS(=O)(=O)c2cccc(NC(=O)CCN)c2)C(=O)N2CCC(CCN)CC2)c1", "testedSystem": "Suppressor of tumorigenicity 14 protein (Homo sapiens)", "resultValue": -2.42}
{"molecule": "N=C(N)c1cccc(C[C@H](NS(=O)(=O)c2cccc(CCCCN)c2)C(=O)N2CCC(CCN)CC2)c1", "testedSystem": "Suppressor of tumorigenicity 14 protein (Homo sapiens)", "resultValue": -3.00}

Fill in: Suppressor of tumorigenicity 14 protein (Homo sapiens) log10 of Ki for N=C(N)c1cccc(C[C@H](NS(=O)(=O)c2cccc(C3CCC(N)=NC3)c2)C(=O)N2CCC(CCN)CC2)c1 (stereo partly specified) = -4.10
